Data origin, for the record: patent US9617251B2

pIC50: −log10 of the molar value.
Test system cytochrome P450 2C9-isoenzyme (Homo sapiens), pIC50 listed for each of the compounds.

Consider the following illustrative entries.
COMPOUND | READOUT VALUE
Cc1cccc(C)c1-c1ccc(F)c2c1CC[C@H]2Nc1ccc([C@H]2C[C@@H]2C(=O)O)cn1 | 4.44
Cc1cc(OC2CCOCC2)cc(C)c1-c1ccc(F)c2c1CC[C@H]2Nc1ccc([C@H]2C[C@@H]2C(=O)O)cn1 | < 4.30
O=C(O)[C@H]1C[C@@H]1c1ccc(N[C@@H]2CCc3c(-c4c(F)cccc4F)ccc(F)c32)nc1 | < 4.30
Cc1cc(-c2nnn[nH]2)cc(C)c1-c1ccc(F)c2c1CC[C@H]2Nc1ccc([C@H]2C[C@@H]2C(=O)O)cn1 | < 4.30

Hi team, please reply with pIC50 for each item in this list.
1. N#CC1(c2ccccc2-c2ccc(F)c3c2CC[C@H]3Nc2ccc([C@H]3C[C@@H]3C(=O)O)cn2)CC1
2. Cc1cc(O)cc(C)c1-c1ccc(F)c2c1CC[C@H]2Nc1ccc([C@H]2C[C@@H]2C(=O)O)cn1
3. Cc1cc(-c2nnn(C)n2)cc(C)c1-c1ccc(F)c2c1CC[C@H]2Nc1ccc(C2C[C@@H]2C(=O)O)cn1 (mixture of isomers)

### Response
[5.05, "< 4.30", "< 4.30"]

* * *

Test system cytochrome P450 2C9-isoenzyme (Homo sapiens), IC50 listed for each of the compounds.

COMPOUND | IC50
Cc1cc(-c2ccc(=O)n(C)c2)cc(C)c1-c1ccc(F)c2c1CC[C@H]2Nc1ccc([C@H]2C[C@@H]2C(=O)O)cn1 [Example 37] | > 50 µM
Cc1cc(-c2nnnn2CC(C)(C)O)cc(C)c1-c1ccc(F)c2c1CC[C@H]2Nc1ccc([C@H]2C[C@@H]2C(=O)O)cn1 [Example 24] | > 50 µM

Note: attention shifts to another entry.
So for Cc1cc(-c2ccn(C)c(=O)n2)cc(C)c1-c1ccc(F)c2c1CC[C@H]2Nc1ccc([C@H]2C[C@@H]2C(=O)O)cn1 [Example 71] , the logged IC50 turned out to be > 50 µM

* * *

Test system cytochrome P450 2C9-isoenzyme (Homo sapiens, UniProt P11712), pIC50 listed for each of the compounds.
pIC50: −log10 of the molar value.

Consider the following illustrative entries.
SMILES ENTRY | READOUT VALUE
Cc1nc(-c2cc(C)c(-c3ccc(F)c4c3CC[C@H]4Nc3ccc([C@H]4C[C@@H]4C(=O)O)cn3)c(C)c2)no1 | < 4.30
Cc1cc(OCC2(O)CCOCC2)cc(C)c1-c1ccc(F)c2c1CC[C@H]2Nc1ccc([C@H]2C[C@@H]2C(=O)O)cn1 | < 4.30

Note: attention shifts to another entry.
So for N#Cc1cccc(C#N)c1-c1ccc(F)c2c1CC[C@H]2Nc1ccc([C@H]2C[C@@H]2C(=O)O)cn1 , the logged pIC50 turned out to be < 4.30

* * *

ASSAY EXPLANATION: Chemical stability: degradation kinetics in acidic aqueous media (pH ca. 1.2), HPLC recovery
Assay type: physicochemical
ASSAY CONTEXT: pH value of ca. 1.2 (acetonitrile/0.1 M aqueous HCl 2:3), 37° C.
READOUT LABEL: Amount of degradation after 2 h

SMILES ENTRY | READOUT VALUE
Cc1cc(-c2ccn(C)c(=O)c2)cc(C)c1-c1ccc(F)c2c1CC[C@H]2Nc1ccc([C@H]2C[C@@H]2C(=O)O)cn1 | <0.5%
Cc1cc(C(=O)N(C)C)cc(C)c1-c1ccc(F)c2c1CC[C@H]2Nc1ccc([C@H]2C[C@@H]2C(=O)O)cn1 | <0.5%
N#CC1(c2ccccc2-c2ccc(F)c3c2CC[C@H]3Nc2ccc([C@H]3C[C@@H]3C(=O)O)cn2)CC1 | <0.5%

Hi team, please reply with Amount of degradation after 2 h for each item in this list.
1. COc1cc(-c2cc(C)c(-c3ccc(F)c4c3CC[C@H]4Nc3ccc([C@H]4C[C@@H]4C(=O)O)cn3)c(C)c2)ccn1
2. Cc1cc(-c2ccnn2C)cc(C)c1-c1ccc(F)c2c1CC[C@H]2Nc1ccc([C@H]2C[C@@H]2C(=O)O)cn1
3. CCc1cccc(CC)c1-c1ccc(F)c2c1CC[C@H]2Nc1ccc([C@H]2C[C@@H]2C(=O)O)cn1
4. Cc1cc(O)cc(C)c1-c1ccc(F)c2c1CC[C@H]2Nc1ccc([C@H]2C[C@@H]2C(=O)O)cn1
5. Cc1cc(OCC2(O)CCOCC2)cc(C)c1-c1ccc(F)c2c1CC[C@H]2Nc1ccc([C@H]2C[C@@H]2C(=O)O)cn1
6. Cc1cc(C#N)cc(C)c1-c1ccc(F)c2c1CC[C@H]2Nc1ccc([C@H]2C[C@@H]2C(=O)O)cn1

### Response
<0.5%
<0.5%
<0.5%
<1.5%
<0.5%
<0.5%

* * *

Protein target, amino acids: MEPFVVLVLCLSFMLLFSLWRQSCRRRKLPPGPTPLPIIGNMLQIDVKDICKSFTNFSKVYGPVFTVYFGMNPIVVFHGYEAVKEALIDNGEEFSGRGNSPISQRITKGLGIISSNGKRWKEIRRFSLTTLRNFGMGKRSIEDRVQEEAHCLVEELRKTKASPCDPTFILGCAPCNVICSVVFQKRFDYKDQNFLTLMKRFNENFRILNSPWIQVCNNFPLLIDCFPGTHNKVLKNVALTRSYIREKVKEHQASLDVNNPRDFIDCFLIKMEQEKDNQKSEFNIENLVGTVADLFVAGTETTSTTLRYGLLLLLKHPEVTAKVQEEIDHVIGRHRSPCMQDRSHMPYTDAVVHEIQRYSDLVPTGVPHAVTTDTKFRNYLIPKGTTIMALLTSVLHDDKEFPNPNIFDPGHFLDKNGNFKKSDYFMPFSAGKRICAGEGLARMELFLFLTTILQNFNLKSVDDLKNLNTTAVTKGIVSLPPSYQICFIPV
For each entry below, report its IC50 value.

Consider the following illustrative entries.
COMPOUND | READOUT LABEL | READOUT VALUE
Cc1cc(C(=O)N(C)C)cc(C)c1-c1ccc(F)c2c1CC[C@H]2Nc1ccc([C@H]2C[C@@H]2C(=O)O)cn1 | IC50 | > 50 µM
Cc1cc(OCCC(C)(C)O)cc(C)c1-c1ccc(F)c2c1CC[C@H]2Nc1ccc(C2C[C@@H]2C(=O)O)cn1 (mixture of isomers) | IC50 | > 50 µM
O=C(O)[C@H]1C[C@@H]1c1ccc(N[C@@H]2CCc3c(-c4c(F)cccc4F)ccc(F)c32)nc1 | IC50 | > 50 µM
Cc1cc(OCC(C)(C)O)cc(C)c1-c1ccc(F)c2c1CC[C@H]2Nc1ccc([C@H]2C[C@@H]2C(=O)O)cn1 | IC50 | > 50 µM
Cc1cc(CO)cc(C)c1-c1ccc(F)c2c1CC[C@H]2Nc1ccc([C@H]2C[C@@H]2C(=O)O)cn1 | IC50 | > 50 µM
CNC(=O)c1cc(C)c(-c2ccc(F)c3c2CC[C@H]3Nc2ccc([C@H]3C[C@@H]3C(=O)O)cn2)c(C)c1 | IC50 | > 50 µM

Hi team, please reply with IC50 for each item in this list.
1. Cc1cc(OCCC(C)(C)O)cc(C)c1-c1cccc2c1CC[C@H]2Nc1ccc(C2C[C@@H]2C(=O)O)cn1 (mixture of isomers)
2. Cc1cc(O[C@H]2CCOC2)cc(C)c1-c1ccc(F)c2c1CC[C@H]2Nc1ccc([C@H]2C[C@@H]2C(=O)O)cn1
3. CC(C)c1ccccc1-c1ccc(F)c2c1CC[C@H]2Nc1ccc([C@H]2C[C@@H]2C(=O)O)cn1
4. COc1cc(F)c(-c2ccc(F)c3c2CC[C@H]3Nc2ccc([C@H]3C[C@@H]3C(=O)O)cn2)c(F)c1
5. Cc1cc(C(=O)O)cc(C)c1-c1ccc(F)c2c1CC[C@H]2Nc1ccc([C@H]2C[C@@H]2C(=O)O)cn1
6. Cc1cc(-c2nnn(C)n2)cc(C)c1-c1ccc(F)c2c1CC[C@H]2Nc1ccc([C@H]2C[C@@H]2C(=O)O)cn1

### Response
1. > 50 µM
2. 49 µM
3. 12 µM
4. 33 µM
5. > 50 µM
6. 19 µM

* * *

For each entry below, report its solubility at 24 h value.
ASSAY EXPLANATION: Aqueous solubility in buffer vs acetonitrile/water (1/1), LC-UV
Format: physicochemical
ASSAY CONTEXT: kinetic from dmso stock, buffer pH 2.2, 24 h shaking, 2.5% DMSO
Numbers only, in µg/mL.

Consider the following illustrative entries.
SMILES ENTRY | UOM | solubility at 24 h
Cc1cc(OCC2(O)CCOCC2)cc(C)c1-c1ccc(F)c2c1CC[C@H]2Nc1ccc([C@H]2C[C@@H]2C(=O)O)cn1 | µg/mL | 118
Cc1ccc(Cl)c(-c2ccc(F)c3c2CC[C@H]3Nc2ccc([C@H]3C[C@@H]3C(=O)O)cn2)c1Cl | µg/mL | 56
Cc1cc(OCC(=O)O)cc(C)c1-c1ccc(F)c2c1CC[C@H]2Nc1ccc([C@H]2C[C@@H]2C(=O)O)cn1 | µg/mL | 73
COc1cc(OC)c(Cl)c(-c2ccc(F)c3c2CC[C@H]3Nc2ccc([C@H]3C[C@@H]3C(=O)O)cn2)c1Cl | µg/mL | 76
Cc1cc(-c2ccc(=O)n(C)c2)cc(C)c1-c1ccc(F)c2c1CC[C@H]2Nc1ccc([C@H]2C[C@@H]2C(=O)O)cn1 | µg/mL | 113

So for Cc1cc(O[C@H]2CCOC2)cc(C)c1-c1ccc(F)c2c1CC[C@H]2Nc1ccc([C@H]2C[C@@H]2C(=O)O)cn1 , the logged solubility at 24 h turned out to be 115
